A collection of compounds and their measured IC50
# target_system: Cezanne 1 (Homo sapiens (Human), UniProt Q6GQQ9)
# Sequence (Q6GQQ9 whole entry): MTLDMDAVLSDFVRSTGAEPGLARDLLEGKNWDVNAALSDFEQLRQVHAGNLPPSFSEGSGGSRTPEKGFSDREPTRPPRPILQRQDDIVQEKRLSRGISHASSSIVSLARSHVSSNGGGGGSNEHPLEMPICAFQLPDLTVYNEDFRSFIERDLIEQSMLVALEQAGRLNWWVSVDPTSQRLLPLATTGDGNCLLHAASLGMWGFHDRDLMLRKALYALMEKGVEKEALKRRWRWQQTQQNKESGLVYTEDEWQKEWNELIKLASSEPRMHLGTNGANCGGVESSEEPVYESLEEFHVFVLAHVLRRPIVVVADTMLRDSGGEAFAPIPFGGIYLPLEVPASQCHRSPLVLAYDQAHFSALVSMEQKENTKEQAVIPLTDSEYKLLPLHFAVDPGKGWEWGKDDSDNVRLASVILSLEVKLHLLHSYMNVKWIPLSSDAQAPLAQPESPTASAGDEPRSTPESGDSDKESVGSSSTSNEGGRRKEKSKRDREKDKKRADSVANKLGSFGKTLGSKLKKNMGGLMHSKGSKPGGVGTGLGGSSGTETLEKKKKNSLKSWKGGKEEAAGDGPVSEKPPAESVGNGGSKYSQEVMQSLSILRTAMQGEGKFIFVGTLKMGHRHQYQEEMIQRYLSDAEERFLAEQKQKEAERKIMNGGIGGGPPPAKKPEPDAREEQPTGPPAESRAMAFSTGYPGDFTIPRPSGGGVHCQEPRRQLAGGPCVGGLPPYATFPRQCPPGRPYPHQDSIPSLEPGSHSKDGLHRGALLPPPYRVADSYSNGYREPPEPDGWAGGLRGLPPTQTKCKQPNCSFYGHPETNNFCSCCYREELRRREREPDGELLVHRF
# assay_comment: Cezanne 1 biochemical IC50 assay (fluorescence polarisation, TAMRA labelled peptide linked to ubiquitin)
# stated_conditions: Cezanne 1 biochemical IC50 assay; 30 min pre-incubation, read after 2 hr at room temperature; read-out: IC50 range
# Experimental: The Cezanne 1 construct was PCR amplified and cloned into a pFLAG-CMV-6c vector (Sigma-Aldrich) with an N-terminal FLAG tag. […] Reactions were initiated by the addition of 50 nM of TAMRA labelled peptide linked to ubiquitin via an iso-peptide bond as fluorescence polarisation substrate. Reactions were read immediately after addition of substrate and following a 2 hr incubation at room temperature. Readings were performed on a Pherastar Plus (BMG Labtech). λ Excitation 540 nm; λ Emission 590 nm.

[
  {
    "compound": "N#CN1CCC2(CCNC2=O)C1 (stereo not shown)",
    "IC50": "> 10000 nM"
  },
  {
    "compound": "Cc1ccc2[nH]ncc2c1-c1ccc2c(c1)CC1(CCN(C#N)C1)C(=O)N2 (stereo not shown)",
    "IC50": "100 to 1000 nM"
  },
  {
    "compound": "N#CN1CCC2(Cc3cc(-c4ccc(CN5CCOCC5)cc4)ccc3NC2=O)C1 (stereo not shown)",
    "IC50": "100 to 1000 nM"
  },
  {
    "compound": "N#CN1CCC2(Cc3ccc(-c4ccccc4)cc3NC2=O)C1 (stereo not shown)",
    "IC50": "1000 to 10000 nM"
  }
]

---

# target_system: UniProt:Q6GQQ9
# assay_comment: Cezanne 1 biochemical IC50 assay (fluorescence polarisation, TAMRA labelled peptide linked to ubiquitin)
# stated_conditions: Cezanne 1 biochemical IC50 assay; 30 min pre-incubation, read after 2 hr at room temperature; read-out: IC50 range
experimental_readout: IC50

[
  {
    "compound": "N#CN1CCC2(C1)Nc1ncc(-c3ccccc3)cc1NC2=O (stereo not drawn) [Example 57]",
    "experimental_readout": "IC50",
    "observed": "100 to 1000 nM"
  },
  {
    "compound": "N#CN1CCC2(C1)Oc1nc(-c3cccc4[nH]ncc34)ccc1NC2=O (stereo not drawn) [Example 139]",
    "experimental_readout": "IC50",
    "observed": "100 to 1000 nM"
  },
  {
    "compound": "N#Cc1cccc(-c2ccc3c(c2)CC2(CCN(C#N)C2)C(=O)N3)c1 (stereo not drawn) [Example 43]",
    "experimental_readout": "IC50",
    "observed": "100 to 1000 nM"
  },
  {
    "compound": "N#CN1CCC2(Cc3ccc(-c4cccc(S(=O)(=O)N5CCOCC5)c4)cc3NC2=O)C1 (stereo not drawn) [Example 38]",
    "experimental_readout": "IC50",
    "observed": "1000 to 10000 nM"
  },
  {
    "compound": "N#CN1CCC2(Cc3cc(-c4cccc(NS(=O)(=O)C5CC5)c4)ccc3NC2=O)C1 (stereo not drawn) [Example 109]",
    "experimental_readout": "IC50",
    "observed": "100 to 1000 nM"
  },
  {
    "compound": "Cc1noc(C)c1-c1ccc2c(c1)CC1(CCN(C#N)C1)C(=O)N2 (stereo not drawn) [Example 124]",
    "experimental_readout": "IC50",
    "observed": "100 to 1000 nM"
  },
  {
    "compound": "N#CN1CCC2(C1)Oc1ncccc1NC2=O (stereo not drawn) [Example 48]",
    "experimental_readout": "IC50",
    "observed": "100 to 1000 nM"
  },
  {
    "compound": "N#CN1CCC2(Cc3ccc(-c4cccc(N5CCCCC5)c4)cc3NC2=O)C1 (stereo not drawn) [Example 35]",
    "experimental_readout": "IC50",
    "observed": "1000 to 10000 nM"
  },
  {
    "compound": "C[C@@H]1NC(=O)C2(CCN(C#N)C2)NC1=O (stereo partly drawn) [Example 78]",
    "experimental_readout": "IC50",
    "observed": "1000 to 10000 nM"
  }
]

---

# target_system: UniProt Q6GQQ9
# assay_comment: Cezanne 1 biochemical IC50 assay (fluorescence polarisation, TAMRA labelled peptide linked to ubiquitin)
# stated_conditions: Cezanne 1 biochemical IC50 assay; 30 min pre-incubation, read after 2 hr at room temperature; read-out: IC50 range
experimental_readout: IC50

[
  {
    "compound": "N#CN1CCC2(C1)NC(=O)CNC2=O (stereo not drawn) [Example 77]",
    "observed": "1000 to 10000 nM"
  },
  {
    "compound": "CCC1CC2(CCN(C#N)C2)C(=O)N1 (stereo not drawn) [Example 80]",
    "observed": "> 10000 nM"
  },
  {
    "compound": "COc1ccc(-c2cnc3c(c2)NC(=O)C2(CCN(C#N)C2)O3)c(C)n1 (stereo not drawn) [Example 138]",
    "observed": "100 to 1000 nM"
  },
  {
    "compound": "CN1CCN(C(=O)c2ccc(-c3ccc4c(c3)NC(=O)C3(CCN(C#N)C3)C4)cc2)CC1 (stereo not drawn) [Example 23]",
    "observed": "100 to 1000 nM"
  },
  {
    "compound": "N#CN1CCC2(CNc3ncccc3NC2=O)C1 (stereo not drawn) [Example 86]",
    "observed": "100 to 1000 nM"
  },
  {
    "compound": "N#CN1CCC2(Cc3cc(-c4cc(OC(F)(F)F)ccc4Cl)ccc3NC2=O)C1 (stereo not drawn) [Example 125]",
    "observed": "100 to 1000 nM"
  },
  {
    "compound": "N#Cc1cccc(-c2cnc3c(c2)NC(=O)[C@@]2(CCN(C#N)C2)O3)c1 [Example 71]",
    "observed": "100 to 1000 nM"
  },
  {
    "compound": "Cc1n[nH]c(C)c1-c1ccc2c(c1)NC(=O)C1(CCN(C#N)C1)C2 (stereo not drawn) [Example 33]",
    "observed": "1000 to 10000 nM"
  },
  {
    "compound": "Cc1cc(-c2ccc3c(c2)NC(=O)C2(CCN(C#N)C2)C3)ccn1 (stereo not drawn) [Example 34]",
    "observed": "1000 to 10000 nM"
  }
]

---

# target_system: Cezanne 1 (Homo sapiens (Human), UniProt Q6GQQ9)
# assay_comment: Cezanne 1 biochemical IC50 assay (fluorescence polarisation, TAMRA labelled peptide linked to ubiquitin)
# Protocol: The Cezanne 1 construct was PCR amplified and cloned into a pFLAG-CMV-6c vector (Sigma-Aldrich) with an N-terminal FLAG tag. […] Reactions were initiated by the addition of 50 nM of TAMRA labelled peptide linked to ubiquitin via an iso-peptide bond as fluorescence polarisation substrate. Reactions were read immediately after addition of substrate and following a 2 hr incubation at room temperature. Readings were performed on a Pherastar Plus (BMG Labtech). λ Excitation 540 nm; λ Emission 590 nm.
pIC50: −log10 of the molar value.
A collection of compounds and their measured pIC50

[
  {
    "compound": "COc1ccc2c(c1)NC(=O)C1(CCN(C#N)C1)C2 (stereo not drawn)",
    "pIC50": "5.00 to 6.00"
  },
  {
    "compound": "N#CN1CCC2(Cc3ccc(-c4ccc(-c5ccccc5)cc4)cc3NC2=O)C1 (stereo not drawn)",
    "pIC50": "5.00 to 6.00"
  },
  {
    "compound": "N#CN1CCC2(Cc3ccc(Cl)cc3NC2=O)C1 (stereo not drawn)",
    "pIC50": "5.00 to 6.00"
  }
]

---

# target_system: UniProt:Q6GQQ9
# assay_comment: Cezanne 1 biochemical IC50 assay (fluorescence polarisation, TAMRA labelled peptide linked to ubiquitin)
# stated_conditions: Cezanne 1 biochemical IC50 assay; 30 min pre-incubation, read after 2 hr at room temperature; read-out: IC50 range
experimental_readout: IC50

[
  {
    "compound": "CN1CCN(C(=O)c2ccc(-c3ccc4c(c3)CC3(CCN(C#N)C3)C(=O)N4)cc2)CC1 (stereo not drawn)",
    "target_system": "UniProt:Q6GQQ9",
    "observed": "1000 to 10000 nM"
  },
  {
    "compound": "N#CN1CCC2(C1)Oc1ncc(-c3cccc4c3cnn4CCO)cc1NC2=O (stereo not drawn)",
    "target_system": "UniProt:Q6GQQ9",
    "observed": "< 100 nM"
  },
  {
    "compound": "Cn1ncc2cc(-c3ccc4c(c3)CC3(CCN(C#N)C3)C(=O)N4)ccc21 (stereo not drawn)",
    "target_system": "UniProt:Q6GQQ9",
    "observed": "100 to 1000 nM"
  },
  {
    "compound": "Cn1cc(-c2ccc3c(c2)CC2(CCN(C#N)C2)C(=O)N3)cn1 (stereo not drawn)",
    "target_system": "UniProt:Q6GQQ9",
    "observed": "100 to 1000 nM"
  },
  {
    "compound": "Cc1nc2cc(-c3ccc4c(c3)NC(=O)C3(CCN(C#N)C3)C4)ccc2s1 (stereo not drawn)",
    "target_system": "UniProt:Q6GQQ9",
    "observed": "100 to 1000 nM"
  },
  {
    "compound": "Cn1ncc2c(-c3cnc4c(c3)NC(=O)C3(CCN(C#N)C3)O4)cccc21 (stereo not drawn)",
    "target_system": "UniProt:Q6GQQ9",
    "observed": "< 100 nM"
  },
  {
    "compound": "CC(=O)Nc1cccc(-c2ccc3c(c2)NC(=O)C2(CCN(C#N)C2)C3)c1 (stereo not drawn)",
    "target_system": "UniProt:Q6GQQ9",
    "observed": "1000 to 10000 nM"
  },
  {
    "compound": "Cc1cnn(C)c1-c1cnc2c(c1)NC(=O)C1(CCN(C#N)C1)N2 (stereo not drawn)",
    "target_system": "UniProt:Q6GQQ9",
    "observed": "100 to 1000 nM"
  },
  {
    "compound": "N#CN1CCC2(C1)Nc1cccnc1NC2=O (stereo not drawn)",
    "target_system": "UniProt:Q6GQQ9",
    "observed": "1000 to 10000 nM"
  }
]
